# system-name: Stimulator of interferon genes protein (Homo sapiens, UniProt Q86WV6)
# Sequence (Q86WV6 whole entry): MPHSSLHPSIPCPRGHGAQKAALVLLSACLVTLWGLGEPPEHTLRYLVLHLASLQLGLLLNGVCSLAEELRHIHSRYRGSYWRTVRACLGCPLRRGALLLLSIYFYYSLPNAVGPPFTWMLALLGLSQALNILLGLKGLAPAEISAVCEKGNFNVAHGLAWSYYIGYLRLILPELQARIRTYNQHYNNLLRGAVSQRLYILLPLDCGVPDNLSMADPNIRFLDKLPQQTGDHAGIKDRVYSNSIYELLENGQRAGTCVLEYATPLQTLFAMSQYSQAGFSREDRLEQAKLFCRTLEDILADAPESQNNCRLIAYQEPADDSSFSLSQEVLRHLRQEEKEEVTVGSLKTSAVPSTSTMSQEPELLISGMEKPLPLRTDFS
# assay-remarks: Activation of wild-type human STING expressed in HEK293T cells assessed as IRF3 reporter activation at 10 uM measured after 20 hrs by luciferase reporter gene assay
# Assay type: cell-based
value-type: Activity (%)

molecule=O=C(NCc1ccco1)c1ccc2ccn(Cc3ccccc3)c2c1 readout_units=% recorded_value=-1
molecule=O=C(NCc1ccco1)c1ccc2c(c1)N(Cc1ccccc1)C(=O)CS2 readout_units=% recorded_value=27
molecule=O=C(NCc1ccco1)c1ccc2c(c1)N(Cc1ccccc1)C(=O)CCO2 readout_units=% recorded_value=-1
molecule=O=C(NCc1ccco1)c1ccc2c(c1)N(Cc1c(F)cccc1Cl)C(=O)CO2 readout_units=% recorded_value=30
molecule=O=C(NCc1ccco1)c1ccc2[nH]c(=O)n(Cc3ccccc3Cl)c2c1 readout_units=% recorded_value=-1
molecule=O=C(NCc1c(F)cc(F)cc1F)c1ccc2c(c1)N(C(=O)c1c(F)cccc1Cl)CCO2 readout_units=% recorded_value=26
molecule=O=C(NCc1ccco1)c1ccc2[nH]c(=O)n(Cc3ccccc3)c(=O)c2c1 readout_units=% recorded_value=0
molecule=O=C(NCc1ccco1)c1ccc2c(c1)N(Cc1c(F)cccc1Cl)C(=O)C21CC1 readout_units=% recorded_value=6
molecule="CN1C(=O)C(C)(Cc2ccccc2)c2cc(C(=O)NCc3ccco3)ccc21 (centres undefined)" readout_units=% recorded_value=-1
